These entries and their values trace back to ChEMBL document CHEMBL1909046.

- Target System: Cysteinyl leukotriene receptor 1 (Homo sapiens, UniProt Q9Y271); note: in other assays of this panel Not Active means under 50% inhibition at 10 µM
- Sequence (Q9Y271 whole entry): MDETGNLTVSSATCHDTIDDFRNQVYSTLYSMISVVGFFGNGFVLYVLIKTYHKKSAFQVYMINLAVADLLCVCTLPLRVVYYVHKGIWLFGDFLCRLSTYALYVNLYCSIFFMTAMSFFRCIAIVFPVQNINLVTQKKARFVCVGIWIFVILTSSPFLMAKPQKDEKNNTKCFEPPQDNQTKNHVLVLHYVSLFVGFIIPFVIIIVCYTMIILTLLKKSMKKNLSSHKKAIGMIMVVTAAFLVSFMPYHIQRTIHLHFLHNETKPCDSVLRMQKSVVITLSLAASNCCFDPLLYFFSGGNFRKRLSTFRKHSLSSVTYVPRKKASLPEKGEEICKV
- Assay type: cell membranes, CHO-K1, Membrane
- Condition Label: cho-k1
Experimental Readout: IC50

Solved cases below.
Molecule	Target System	Observed
Cc1nc2n(c(=O)c1CCN1CCC(c3noc4cc(F)ccc34)CC1)CCCC2 [RISPERIDONE]	Cysteinyl leukotriene receptor 1 (Homo sapiens, UniProt Q9Y271)	Not Active
CC(NC(C)(C)C)C(=O)c1cccc(Cl)c1 (configuration not stated) [BUPROPION]	Cysteinyl leukotriene receptor 1 (Homo sapiens, UniProt Q9Y271)	Not Active
CCCCc1oc2ccccc2c1C(=O)c1cc(I)c(OCCN(CC)CC)c(I)c1 [AMIODARONE]	Cysteinyl leukotriene receptor 1 (Homo sapiens, UniProt Q9Y271)	Not Active
CC(=O)O[C@@]12CO[C@@H]1C[C@H](O)[C@@]1(C)C(=O)[C@H](O)C3=C(C)[C@@H](OC(=O)[C@H](O)[C@@H](NC(=O)OC(C)(C)C)c4ccccc4)C[C@@](O)([C@@H](OC(=O)c4ccccc4)[C@H]21)C3(C)C.O.O.O [DOCETAXEL]	Cysteinyl leukotriene receptor 1 (Homo sapiens, UniProt Q9Y271)	Not Active
COc1cc2c3cc1Oc1cc(ccc1O)C[C@@H]1c4c(cc(OC)c(O)c4Oc4ccc(cc4)C[C@@H]3N(C)CC2)CC[N+]1(C)C.[Cl-]	Cysteinyl leukotriene receptor 1 (Homo sapiens, UniProt Q9Y271)	Not Active
CN(C)c1nc(N(C)C)nc(N(C)C)n1 [ALTRETAMINE]	Cysteinyl leukotriene receptor 1 (Homo sapiens, UniProt Q9Y271)	Not Active
CCCC1O[C@@H]2C[C@H]3[C@@H]4CCC5=CC(=O)C=C[C@]5(C)[C@H]4[C@@H](O)C[C@]3(C)[C@]2(C(=O)CO)O1 (some centres not stated) [BUDESONIDE]	Cysteinyl leukotriene receptor 1 (Homo sapiens, UniProt Q9Y271)	Not Active
Cc1oncc1C(=O)Nc1ccc(C(F)(F)F)cc1 [LEFLUNOMIDE]	Cysteinyl leukotriene receptor 1 (Homo sapiens, UniProt Q9Y271)	Not Active

Param readout= IC50; system= Cysteinyl leukotriene receptor 1 (Homo sapiens, UniProt Q9Y271); entry= N[C@@H]1[C@H]2CN(c3nc4c(cc3F)c(=O)c(C(=O)O)cn4-c3ccc(F)cc3F)C[C@@H]12 [TROVAFLOXACIN] ; returns value. Note: in other assays of this panel Not Active means under 50% inhibition at 10 µM.
Not Active
